Measured values drawn from ChEMBL document CHEMBL1139973 for this set.

Each record here notes measured Activity.
- target-or-test-system: ATP-dependent translocase ABCB1 (Homo sapiens)
- Sequence (P08183 whole entry): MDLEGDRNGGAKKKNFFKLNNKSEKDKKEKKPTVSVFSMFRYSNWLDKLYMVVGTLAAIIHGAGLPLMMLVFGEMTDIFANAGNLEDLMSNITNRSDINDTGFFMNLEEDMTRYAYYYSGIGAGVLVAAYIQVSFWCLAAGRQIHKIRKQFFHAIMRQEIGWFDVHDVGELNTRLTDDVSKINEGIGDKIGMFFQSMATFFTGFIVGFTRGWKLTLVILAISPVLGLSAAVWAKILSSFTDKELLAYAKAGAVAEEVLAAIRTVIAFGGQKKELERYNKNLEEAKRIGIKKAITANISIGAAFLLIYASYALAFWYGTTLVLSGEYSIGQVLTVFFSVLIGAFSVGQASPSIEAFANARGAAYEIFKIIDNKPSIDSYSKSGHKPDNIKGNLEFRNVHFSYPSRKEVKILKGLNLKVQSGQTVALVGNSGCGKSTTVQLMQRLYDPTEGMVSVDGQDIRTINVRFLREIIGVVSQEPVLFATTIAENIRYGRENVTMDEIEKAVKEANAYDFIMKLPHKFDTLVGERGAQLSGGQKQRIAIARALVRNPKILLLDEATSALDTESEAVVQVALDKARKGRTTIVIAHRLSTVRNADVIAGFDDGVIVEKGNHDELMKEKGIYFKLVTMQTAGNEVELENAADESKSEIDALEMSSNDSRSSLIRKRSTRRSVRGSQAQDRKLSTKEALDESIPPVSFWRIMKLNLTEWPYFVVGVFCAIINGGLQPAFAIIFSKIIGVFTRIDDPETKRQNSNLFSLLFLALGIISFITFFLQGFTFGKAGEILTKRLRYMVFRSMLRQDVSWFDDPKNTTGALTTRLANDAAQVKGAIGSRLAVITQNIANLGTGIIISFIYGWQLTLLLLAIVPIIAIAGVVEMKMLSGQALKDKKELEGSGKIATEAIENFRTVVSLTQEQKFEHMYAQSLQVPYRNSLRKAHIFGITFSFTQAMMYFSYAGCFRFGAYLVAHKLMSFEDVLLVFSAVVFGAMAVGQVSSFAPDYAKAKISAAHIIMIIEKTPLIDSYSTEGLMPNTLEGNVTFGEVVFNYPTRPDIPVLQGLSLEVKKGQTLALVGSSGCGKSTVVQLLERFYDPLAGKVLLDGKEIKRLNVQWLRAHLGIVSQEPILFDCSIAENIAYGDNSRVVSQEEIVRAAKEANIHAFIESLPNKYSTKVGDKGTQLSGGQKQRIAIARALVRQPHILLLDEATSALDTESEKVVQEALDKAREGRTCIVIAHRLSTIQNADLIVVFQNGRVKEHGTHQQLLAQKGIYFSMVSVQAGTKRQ
- protocol-text: Inhibition of Pgp in multidrug-resistant human 2780AD cells assessed as calcein accumulation at 2.5 ug/mL relative to control
- Type: cell-based
- Parameters: scale not given: the % may be the effect or the level left
- measurement-context: a2780 adr
measurement-label: Activity (%)

INSERT INTO measurements (compound, target_or_test_system, observed) VALUES
  ('C=C1[C@@H](OC(C)=O)CC[C@@]2(C)C[C@H](OC(C)=O)C3=C(C)C[C@H](OC(=O)CCCC)[C@@H]([C@@H](OC(C)=O)[C@H]12)C3(C)C', 'ATP-dependent translocase ABCB1 (Homo sapiens)', 88),
  ('C=C1[C@@H](OC(C)=O)CC[C@@]2(C)C[C@H](OC(C)=O)C3=C(C)C[C@H](OC(=O)c4ccccc4)[C@@H]([C@@H](OC(C)=O)[C@H]12)C3(C)C', 'ATP-dependent translocase ABCB1 (Homo sapiens)', 107),
  ('C=C1[C@@H](OC(C)=O)C[C@H](OC(=O)/C=C/c2ccccc2)[C@@]2(C)C[C@H](OC(C)=O)C3=C(C)C[C@H](OC(=O)C(C)CC)[C@@H]([C@@H](OC(C)=O)[C@H]12)C3(C)C (stereo partly specified)', 'ATP-dependent translocase ABCB1 (Homo sapiens)', 98),
  ('C=C1[C@@H](OC(C)=O)CC[C@@]2(C)C[C@H](O)C3=C(C)C[C@H](OC(C)=O)[C@@H]([C@@H](OC(C)=O)[C@H]12)C3(C)C', 'ATP-dependent translocase ABCB1 (Homo sapiens)', 98),
  ('C=C1[C@@H](OC(=O)/C=C/c2ccccc2)CC[C@@]2(C)C[C@H](OC(C)=O)C3=C(C)C[C@H](OC(C)=O)[C@@H]([C@@H](OC(C)=O)[C@H]12)C3(C)C', 'ATP-dependent translocase ABCB1 (Homo sapiens)', 95),
  ('C=C1[C@@H](OC(C)=O)CC[C@@]2(C)C[C@H](OC(C)=O)C3=C(C)C[C@H](O)[C@@H]([C@@H](OC(C)=O)[C@H]12)C3(C)C', 'ATP-dependent translocase ABCB1 (Homo sapiens)', 86),
  ('C=C1[C@@H](OC(C)=O)CC[C@@]2(C)C[C@H](OC(=O)/C=C/c3ccccc3)C3=C(C)C[C@H](O)[C@@H]([C@@H](OC(C)=O)[C@H]12)C3(C)C', 'ATP-dependent translocase ABCB1 (Homo sapiens)', 113),
  ('C=C1[C@@H](OC(C)=O)C[C@H](O)[C@@]2(C)C[C@H](OC(C)=O)C3=C(C)C[C@H](OC(=O)C(C)CC)[C@@H]([C@@H](OC(C)=O)[C@H]12)C3(C)C (stereo partly specified)', 'ATP-dependent translocase ABCB1 (Homo sapiens)', 98),
  ('C=C1[C@@H](OC(C)=O)CC[C@@]2(C)C[C@H](OC(C)=O)C3=C(C)CC[C@@H]([C@@H](OC(C)=O)[C@H]12)C3(C)C', 'ATP-dependent translocase ABCB1 (Homo sapiens)', 105),
  ('C=C1[C@@H](OC(C)=O)CC[C@@]2(C)C[C@H](OC(C)=O)C3=C(C)C[C@H](OC(C)=O)[C@@H]([C@@H](O)[C@H]12)C3(C)C', 'ATP-dependent translocase ABCB1 (Homo sapiens)', 99),
  ('C=C1[C@@H](OC(C)=O)CC[C@@]2(C)C[C@H](OC(C)=O)C3=C(C)C[C@H](OC(=O)C(C)C(C)O)[C@@H]([C@@H](OC(C)=O)[C@H]12)C3(C)C (stereo partly specified) [YUNNANXANE]', 'ATP-dependent translocase ABCB1 (Homo sapiens)', 94);
